Test: Evaluation of hardness (EZ-Test-20N hardness meter, needle penetration)
Format: physicochemical
Details: UNICLEAR 100VG: 30% with 70% of the listed component; 25° C.
Label T for high-side Hardness (at or above 0.05 N) and F for low-side Hardness (below it).

* CCCCCCCCCCCCCCCCOC(=O)C(CC)CCCC (centres unmarked) [CEH, Cetyl ethylhexanoate] | T
* CC(C)CCCCCCCCCCCCCCCOC(=O)CC(O)C(=O)OCCCCCCCCCCCCCCCC(C)C (centres unmarked) [DIS, Diisostearyl malate] | T
* CC(C)CCCC(C)CCCC(C)CCCCC(C)CCCC(C)CCCC(C)C (centres unmarked) | F
* CCCCC(CC)C(=O)OCC(COC(=O)C(CC)CCCC)OC(=O)C(CC)CCCC (centres unmarked) | T
* CC(C)CCCCCCCCCCCCCCC(=O)OC(C)C [IPIS, Isopropyl isostearate] | T
* CCCCC(CC)C(=O)OCC(COC(=O)C(CC)CCCC)(COC(=O)C(CC)CCCC)COC(=O)C(CC)CCCC (centres unmarked) [PTO, Pentaerythrityl tetraethylhexanoate] | F
* CC(C)CCCCCCCCCCOC(=O)CCCCCC(C)C [KAK139, Isotridecyl isononanoate] | T
